tested on: MS2 coat protein; test: apparent KD of MS2 coat protein; designed switch direction (-1 OFF switch, 1 ON switch): 1; higher = weaker reporter binding; settings: Eterna round: R95; input ligand: FMN 200 uM
observable: apparent KD of MS2 coat protein (nM)

1) UUAAAACAUGAGGAUCACCCAUGUAAUAAUAUGGGAGGAUAUCAGAAUGUAUGUAUGUAAUGAGAAGGCCUAAAUU [Mat - Same State 1 - Mod of Eli - D76] (puzzle: Same State 1): 63.6
2) UGGUAACAUGAGGAUCACCCAUGUCAAAUGAAUCGAGGAUAUGGGAAGGAAGAAGAGAAACUAGAAGGCGAAGUUG [Altered State 1-5 - Jieux - Same State 1] (puzzle: Same State 1): 89
3) CGUCCAGCCUGAGCUGGACAAAAGCAUGUACAUGAGGAUCACCCAUGUUCAUGUACAAGCUUUUUGCUCGUCUUAGG [salish99_208a_r3_074] (puzzle: Sensor for hsa-mir-208a): 593
4) AUAAUACAUGAGGAUCACCCAUGUCAACAAAGUCGAGGAUAUGGGCAAAUAAAAUAAGAACCAGAAGGCGAAUAAU [salish99_ss1_r3_046] (puzzle: Same State 1): 34.2
5) GGUCCAGCCUGAGCUGGACAAAAGCAUGUACAUGAGGAUCACCCAUGUCAUGUACAAGCUUUUUGCUCGUCUAAAAU [Mat - hsa-mir-208a - 101] (puzzle: Sensor for hsa-mir-208a): 508
6) UAGAGAGGAAGCGAGGAUAUCGUGUUAGGUACAUGAGGAUCACCCAUGUUUUAGGUAGAGGUAGGCGAGAAGGCGCAGGAGAAGA [JR_SS2_Sub090] (puzzle: Same State 2): 25.8
7) UCUUGGUUUUUGCUCGUUUUUUGUGUUGAACAUGAGGAUCACCCAUGUAUUAUACGGUCCGGUUUAAUAAUAAUCCG [JMF 81] (puzzle: Sensor for hsa-mir-208a): 24.2
8) UCUUGGUUUUUGCUCGUUUUUUGUGUUGAACAUGAGGAUCACCCAUGUAUUGUACGGUCCAAUUUAAUAAUAGUCCG [JMF 65] (puzzle: Sensor for hsa-mir-208a): 26.6
9) CGUCCAGCCUGAGCUGGACAAAAGCAUGUACAUGAGGAUCACCCAUGUUCAUGUACAAGCUUUUUGCUCGUCUUAAC [salish99_208a_r3_039] (puzzle: Sensor for hsa-mir-208a): 660
10) GAGGAUGAUUUACAGGAUAUAUAGCAGAUGACAUGAGGAUCACCCAUGUAAGAGAAAGGAGGGAGAUAGAAGGGUAUGGGAUGUG [JR_SS2_Sub039] (puzzle: Same State 2): 29.9

====

system: K4 kissing-loop RNA reporter; assay: apparent KD of K4 kissing-loop reporter; higher = weaker reporter binding; settings: Eterna round: R107; input ligand: FMN 200 uM;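 also: bound reporter read as fluorescence of individual clusters on recovered sequencing chips by microscopy, with normalized cluster intensities fitted with a binding model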
observable: apparent KD of K4 kissing-loop reporter (nM)

1) CACCAUGAAUUCUCUAGGAGUGAUGUUUUUCGAGGACCGGUACGGCCGCCACUCGGACGAGGAACGUGGGAGCGGCGAAAAGACU [xzzmullin]: 70.6
2) GUGCAGUGAUGUUGCACGAGGAAAGACGAUACCAGCCGUAAAUAAGGCCCUUGGCAGCGUGGGCUAGCAUAAAGUACGCUAGUCU [Mara]: 111
3) AGUACGGACGCGGCCGCCACUCAGGAGAAGAAGGUAGUGAUGUUGCUUAUGGAGAGAUCAAUCAAGAGGACCGGGUGCCGUGCAA [#07 K4 Tryptophan B Same State]: 285
4) GUGCGGUGGAGGUUACCGCUACUCUGAGAAGGAGCGCAGAUGACUGCAGGUAGGUCGCUUAGAGCUUGCAGUGAUGUUGCAAGUU [Anquatbiat]: 199
5) UCCUGCAAUCCGCCACGAAAGUGGAUGGAUACCAGAGUCGAAAGACUCCCUUGGCAGCCAGUGAUGUUGGAAGCAGGUAAAUAAA: 819
6) AAAACCAAAAGCGAUACCAGCGCGGAGUGAUGUUCCGAGGAUCGGAGUGAUGUUCCGAAGCGCCCUUGGCAGCGCAAAAGCGCAA [Exclusion Theophylline B GF 7]: 207

Just for reference, the supplement of paper PMC9170038 is where these values come from.
